From: PubChem BioAssay

# methodSummary: TOR pathway LAP4-GFP level changes – S. cerevisiae, multiplex flow cytometry, primary screen (AID 1873)
# conditionNotes: S. cerevisiae LAP4-GFP expression, 3 h, at 10 µM, stronger effect = higher value
Inconclusive results are not listed.
Hi, to clarify the labels: True covers GFP response vs DMSO from 90% upward, False covers anything below 90%.

Known results for compounds:
CC(=O)c1cccc(NC(=O)N[C@@H](CC(C)C)C(=O)O)c1 :: True
Cc1nonc1CN(C)C(=O)c1ccc(OC2CCN(Cc3ccccn3)CC2)cc1 :: False
Cc1ccc(-c2nnc(-c3ccc4c(c3)OCO4)o2)cc1 :: True
O=C(O)CCCCCCNC(=O)c1cncc(O)c1 :: True

Request: Please check the record CC(/C=C1\SC(=O)N(CCCC(=O)O)C1=O)=C\c1ccccc1 and state if its GFP response vs DMSO is at or above 90%.
Result: True

###

# testedSystem: GTPase HRas (Homo sapiens)
# methodSummary: Ras wt fluorescent GTP loading blockade – biochemical, wildtype, multiplex bead flow cytometry, dose response (AID 1335)
# conditionNotes: bead-based flow cytometry, Bodipy-GTP binding to GST-Ras; at 100 µM (top of the series) unless noted
Recorded measurements of GTP binding, percent of control, one per entry
Give just the number in %; leave the unit off.

Examples with their reported GTP binding, percent of control follow.
O=C(N/N=C/c1ccc2nccnc2c1)c1cccc([N+](=O)[O-])c1 :: 86.9
COc1ccc(OCc2c(C)cccc2C)c(C(=O)O)c1 :: 203
O=C1C2CC=CCC2C(=O)N1c1ncn[nH]1 (centres undefined) :: 161

Request: What value of measured GTP binding, percent of control is listed for Cc1cc(C(F)(F)F)c(C#N)c(SCC(=O)Nc2nc3ccccc3s2)n1 ?
Result: 105

Request: Repeat for the following compound: Cc1ccc(-n2c(-c3cnccn3)n[nH]c2=S)c(Br)c1
Result: 60.1

Request: Repeat for the following compound: Cc1ccc(S(=O)(=O)Cc2ccc(C(=O)N3CCN(c4cc(C)ccc4C)CC3)o2)cc1
Result: 59.9

Request: Repeat for the following compound: Cn1nc(C(F)(F)F)c(/C=N/OC(=O)c2ccccc2)c1SCc1ccc(Cl)cc1
Result: 181

Request: Repeat for the following compound: COC(=O)c1ccc(COc2ccccc2/C=N/Nc2cccc(C(=O)O)c2)cc1
Result: 100

Request: Repeat for the following compound: COc1ccc2c(c1)c(C(=O)O)cn2CCOc1ccccc1C
Result: 204

Request: Repeat for the following compound: CCc1ccc(Cn2nnc(C(=O)O)c2C(=O)O)cc1
Result: 82.3

Request: Repeat for the following compound: CCn1cc(C(=O)O)c(=O)c2cc(F)c(N/N=C/c3ccccc3[N+](=O)[O-])cc21
Result: 44

###

# methodSummary: TOR pathway RTG branch CIT2 reporter changes – S. cerevisiae, GFP fusion, multiplex flow cytometry, primary screen (AID 1870);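 note: barcoded CIT2-GFP strain pooled with four other GFP strains with rapamycin as positive control; median GFP fluorescence per well over plate mean of DMSO wells so 100% = DMSO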
# conditionNotes: S. cerevisiae CIT2-GFP expression, 3 h, at 10 µM, stronger effect = higher value
measuredMetric: percent response of DMSO control (%)
Give just the number in %; leave the unit off.

CC12CCC(C(=O)NCc3ccc4c(c3)OCO4)(CC1=O)C2(C)C (stereo unspecified) :: 103
CN(C)CCC(c1ccccc1)c1ccccn1 (stereo unspecified) :: 97.9
Cc1ccc2c(CC(=O)O)coc2c1 :: 109

Request: What value of measured percent response of DMSO control is listed for CCc1cc2c(=O)c(-c3nc(C)cs3)coc2cc1OC(C)C(=O)NCCO (stereo unspecified) ?
Result: 107

Request: Repeat for the following molecule: NC(=O)[C@@H]1[C@@H]2C(=O)N(c3ccc(F)cc3)C(=O)[C@@H]2[C@H]2C=Cc3ccccc3N21
Result: 112

Request: Repeat for the following molecule: CCn1c(C)cc2c(c1=O)C(c1ccccc1)C(C(=O)OC)=C(N)O2 (stereo unspecified)
Result: 98.3
